- Test system: Plasmodium falciparum
- assay comment: NOVARTIS: Inhibition of Plasmodium falciparum W2 (drug-resistant) proliferation in erythrocyte-based infection assay
- Type: functional, organism-based
- condition summary: Plasmodium falciparum, W2; read-out: EC50
Documented log10 EC50 across a set of compounds
property measured: log10 EC50 (log10 of the value in nM)

compound: OC(Cn1cnc(-c2ccccc2)c1-c1ccccc1)Cn1c2ccc(Br)cc2c2cc(Br)ccc21 (stereo not given)
log10 EC50: 1.73
--
compound: CCOC(=O)c1cccc(NC(=O)CCn2c(-c3ccc(F)cc3)cc(C(=O)OCC)c2C)c1
log10 EC50: 1.95
--
compound: Oc1cc(-c2ccccc2)nc2ccccc12
log10 EC50: 2.74
--
compound: O=[N+]([O-])c1ccc(C2OC3C(c4ccc(Cl)cc4)=Nc4ccccc4N3C2c2ccc([N+](=O)[O-])cc2)cc1 (stereo not given)
log10 EC50: 2.85
--
compound: CCCCCCCCCCOC(=O)Cn1c(C)[n+](C)c2ccccc21
log10 EC50: 2.81
--
compound: O=C(NCc1ccccc1)c1cnc(NCCCn2ccnc2)nc1Nc1ccccc1
log10 EC50: 2.57
--
compound: CCSc1nc2sc3c(c2c(=O)n1CC)CCN(C)C3
log10 EC50: 2.97
--
compound: Cc1cnc(Sc2ccccn2)c([N+](=O)[O-])c1
log10 EC50: 3.79
--
compound: COc1cc(C2C(C(=O)OCC(C)C)=C(C)NC3=C2C(=O)CC(c2ccccc2)C3)cc(Br)c1O (stereo not given)
log10 EC50: 2.96
--
compound: COc1ccc(C2C(C(=O)Nc3cc(Cl)c(OC)cc3OC)c3ccccc3C(=O)N2C)cc1 (stereo not given)
log10 EC50: 2.52
